Data credit: patent US9067922B2

Target: URAT-1 transporter (Homo sapiens (Human))
Sequence (Q96S37 other isoform, or with tags, fused parts or gaps): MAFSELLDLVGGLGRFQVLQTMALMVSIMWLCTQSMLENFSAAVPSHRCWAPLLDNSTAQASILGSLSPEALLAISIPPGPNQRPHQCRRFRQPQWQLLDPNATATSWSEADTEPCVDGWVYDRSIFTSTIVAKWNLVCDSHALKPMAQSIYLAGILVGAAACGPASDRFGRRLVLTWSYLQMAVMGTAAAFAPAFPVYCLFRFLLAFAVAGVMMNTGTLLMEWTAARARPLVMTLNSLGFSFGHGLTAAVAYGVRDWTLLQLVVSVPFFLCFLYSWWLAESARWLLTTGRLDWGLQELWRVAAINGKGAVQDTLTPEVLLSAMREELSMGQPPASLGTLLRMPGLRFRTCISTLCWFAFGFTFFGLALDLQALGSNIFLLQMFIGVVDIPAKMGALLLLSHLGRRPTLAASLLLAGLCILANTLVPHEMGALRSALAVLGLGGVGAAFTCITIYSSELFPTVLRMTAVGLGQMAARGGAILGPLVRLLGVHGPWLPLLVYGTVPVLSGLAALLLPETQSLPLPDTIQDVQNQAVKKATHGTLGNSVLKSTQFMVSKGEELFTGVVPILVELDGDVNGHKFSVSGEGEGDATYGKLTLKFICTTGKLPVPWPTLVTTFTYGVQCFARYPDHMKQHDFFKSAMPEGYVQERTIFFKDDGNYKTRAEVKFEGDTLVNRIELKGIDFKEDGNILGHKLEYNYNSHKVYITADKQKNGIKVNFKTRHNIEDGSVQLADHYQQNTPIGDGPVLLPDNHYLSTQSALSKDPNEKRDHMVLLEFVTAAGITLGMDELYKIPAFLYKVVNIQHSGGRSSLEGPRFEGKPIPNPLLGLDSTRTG
Experiment: URAT-1 inhibitor activity: [14C]-uric acid uptake in CHO-URAT1(L)GFP#8 (CHO#8) cells, scintillation proximity
Type: cell-based
Conditions: inhibition of [14C]-uric acid (30 nM) uptake into CHO#8 cells; compound 0 to 10 μM; 4 parameter logistic fit
Description: The nucleotide sequence for the long isoform of URAT1 (NM_144585) was C-terminally fused to that of enhanced green fluorescent protein (eGFP) (hereinafter referred to as URAT1(L)GFP). The combined sequence was codon-optimised and custom synthesized. […] The potency of the compounds of formula (I) as inhibitors of the URAT-1 transporter was determined as follows. […] Assay ready flasks were generated by the same method, except the cells were not cultured in blasticidin. […]
parameter: pIC50
Schema: pIC50 number; meaning minus log10 of the concentration expressed in molar units.

// below: answered compounds
{"compound": "N#Cc1cc(S(=O)(=O)Nc2ccc(F)cn2)ccc1Oc1ccc(Cl)c(CO)c1 [compound 240]", "system": "URAT-1 transporter (Homo sapiens (Human))", "pIC50": 6.97}
{"compound": "N#Cc1cc(S(=O)(=O)Nc2ccc(F)cn2)ccc1Oc1cc(Cl)c(C#N)c(Cl)c1 [Example 241]", "system": "URAT-1 transporter (Homo sapiens (Human))", "pIC50": 8.52}
{"compound": "N#Cc1cc(S(=O)(=O)Nc2ccc(F)cn2)ccc1Oc1c(Cl)cccc1C#N [Example 73]", "system": "URAT-1 transporter (Homo sapiens (Human))", "pIC50": 6.38}
{"compound": "N#Cc1cc(S(=O)(=O)Nc2ccc(F)cn2)ccc1Oc1cc(F)cc(F)c1 [Example 11]", "system": "URAT-1 transporter (Homo sapiens (Human))", "pIC50": 6.90}
{"compound": "N#Cc1cc(S(=O)(=O)Nc2ccc(F)cn2)ccc1Oc1cc(Cl)c(F)cc1Cl [Example 107]", "system": "URAT-1 transporter (Homo sapiens (Human))", "pIC50": 7.24}
{"compound": "CC(C)(O)c1ccc(Oc2ccc(S(=O)(=O)Nc3ccc(F)cn3)cc2C#N)cc1 [compound 234]", "system": "URAT-1 transporter (Homo sapiens (Human))", "pIC50": 5.94}

**Q:** Lab note: need pIC50 for CCOc1cc(C)ccc1Oc1ccc(S(=O)(=O)Nc2ccc(F)cn2)cc1C#N [Example 138] on URAT-1 transporter (Homo sapiens (Human)), anyone have it?
**A:** 5.04

**Q:** Entry N#Cc1ccc(Oc2ccc(S(=O)(=O)Nc3cnccn3)cc2C#N)cc1Cl [Example 93] please
**A:** 5.53

* * *

Target: UniProtKB Q96S37
Assay: URAT-1 inhibitor activity: [14C]-uric acid uptake in CHO-URAT1(L)GFP#8 (CHO#8) cells, scintillation proximity
Assay type: cell-based
Settings: inhibition of [14C]-uric acid (30 nM) uptake into CHO#8 cells; compound 0 to 10 μM; 4 parameter logistic fit
pIC50: −log10 of the molar value.
Label N if pIC50 falls below 7; label Y in every other case.

Worked examples follow.
{"smi": "N#Cc1cc(S(=O)(=O)Nc2ccc(F)cn2)ccc1Oc1ccc(Br)cc1", "system": "UniProtKB Q96S37", "class_assignment": "N"}
{"smi": "O=S(=O)(Nc1cccnn1)c1cc(Cl)c(Oc2ccc(Cl)cc2OC(F)F)cc1F", "system": "UniProtKB Q96S37", "class_assignment": "N"}
{"smi": "N#Cc1cc(S(=O)(=O)Nc2ccc(F)cn2)ccc1Oc1cccc(C2CC2)c1", "system": "UniProtKB Q96S37", "class_assignment": "N"}
{"smi": "COc1c(F)ccc(Oc2ccc(S(=O)(=O)Nc3ccc(F)cn3)cc2C#N)c1Cl", "system": "UniProtKB Q96S37", "class_assignment": "N"}

Let us examine a further case.
**Q:** Given the entry `N#Cc1cc(Cl)cc(Oc2ccc(S(=O)(=O)Nc3ccc(F)cn3)cc2C#N)c1` , answer whether its pIC50 meets or surpasses 7.
**A:** Y
